# Tested on: P388
# assay.protocol: In vivo antileukemic activity against P388 lymphocytic leukemia at a dose of 12.5 mg/kg administered intraperitoneally expressed as log of the number of tumor cells (cell kill)
# Assay type: ADME, organism-based
# Parameters: dose 12.5 mg/kg, route intraperitoneal
# condition.summary: mouse, ip
Record form. Attribute: KE. Fill in for each entry.
Numbers only.

Provide KE values for the following items, in order.
1. CC(C)NC(=O)OCC1=C(COC(=O)NC(C)C)C(c2ccccc2)[N+](C)([O-])C1 (centres undefined)
2. CC(C)NC(=O)OCC1=C(COC(=O)NC(C)C)C(C)(C)[N+](C)([O-])C1c1ccccc1 (centres undefined)
3. CC(C)NC(=O)OCC1=C(COC(=O)NC(C)C)C(c2ccccc2)N(C)C1 (centres undefined)
4. CNC(=O)OCC1=CC[N+](C)([O-])C1COC(=O)NC (centres undefined)

[-1.21, -1.54, 0.84, 0.39]

###

# Tested on: P388
# assay.protocol: In vivo antileukemic activity against P388 lymphocytic leukemia at a dose of 100 mg/kg administered intraperitoneally expressed as log of the number of tumor cells (cell kill)
# Type: ADME, organism-based
# Design: dose 100 mg/kg, route intraperitoneal
# condition.summary: mouse, ip
reported.property: KE
Numbers only.

{"compound": "CNC(=O)OCC1=CC[N+](C)([O-])C1COC(=O)NC (centres undefined)", "KE": 1.7}
{"compound": "CC(C)NC(=O)OCC1=C(COC(=O)NC(C)C)C(c2ccccc2)[N+](C)([O-])C1 (centres undefined)", "KE": -0.11}
{"compound": "CC(C)NC(=O)OCC1=C(COC(=O)NC(C)C)C(C)(C)[N+](C)([O-])C1c1ccccc1 (centres undefined)", "KE": -1.53}

Now take the following compound into account.
# KE lookup, item CC(C)NC(=O)OCC1=C(COC(=O)NC(C)C)C(c2ccccc2)N(C)C1 (centres undefined)
5.18

###

# Tested on: P388
# assay.protocol: In vivo antileukemic activity against P388 lymphocytic leukemia at a dose of 50 mg/kg administered intraperitoneally expressed as log of the number of tumor cells (cell kill)
# Assay type: ADME, organism-based
# Design: dose 50 mg/kg, route intraperitoneal
# condition.summary: mouse, ip
reported.property: KE
Numbers only.

Some entries whose results are on file:
{"compound": "CNC(=O)OCC1=CC[N+](C)([O-])C1COC(=O)NC (centres undefined)", "reported.property": "KE", "recorded.result": 0.62}
{"compound": "CC(C)NC(=O)OCC1=C(COC(=O)NC(C)C)C(c2ccccc2)[N+](C)([O-])C1 (centres undefined)", "reported.property": "KE", "recorded.result": -1.16}
{"compound": "CC(C)NC(=O)OCC1=C(COC(=O)NC(C)C)C(c2ccccc2)N(C)C1 (centres undefined)", "reported.property": "KE", "recorded.result": 0.53}

Could you now look at the following compound, please?
What value of KE has been recorded for this entry: CC(C)NC(=O)OCC1=C(COC(=O)NC(C)C)C(C)(C)[N+](C)([O-])C1c1ccccc1 (centres undefined)
-1.53

###

# System: P388
# assay.protocol: In vivo antileukemic activity against P388 lymphocytic leukemia at a dose of 25 mg/kg administered intraperitoneally expressed as weight change of treated to control animals
# Format: functional, Mus musculus
# condition.summary: route intraperitoneal
Provide the reported Weight change of each item.
Answers are plain numbers, in g.

# example entries with known answers
{"molecule": "CNC(=O)OCC1=CC[N+](C)([O-])C1COC(=O)NC (centres undefined)", "Weight change (g)": -1.2}
{"molecule": "CC(C)NC(=O)OCC1=C(COC(=O)NC(C)C)C(c2ccccc2)N(C)C1 (centres undefined)", "Weight change (g)": -0.9}
{"molecule": "CC(C)NC(=O)OCC1=C(COC(=O)NC(C)C)C(c2ccccc2)[N+](C)([O-])C1 (centres undefined)", "Weight change (g)": -0.1}

As a next step, examine the molecule that follows.
Entry CC(C)NC(=O)OCC1=C(COC(=O)NC(C)C)C(C)(C)[N+](C)([O-])C1c1ccccc1 (centres undefined) : reported Weight change = ?
0.1

###

# Tested on: P388
# assay.protocol: In vivo antileukemic activity against P388 lymphocytic leukemia at a dose of 100 mg/kg administered intraperitoneally expressed as ratio of survival of treated compared to untreated control animals
# Format: functional, Mus musculus
# condition.summary: route intraperitoneal
reported.property: T/C (%)
One number for each entry, in %.

Known T/C results, listed for orientation:
{"compound": "CC(C)NC(=O)OCC1=C(COC(=O)NC(C)C)C(c2ccccc2)[N+](C)([O-])C1 (centres undefined)", "readout.unit": "%", "T/C": 134}
{"compound": "CC(C)NC(=O)OCC1=C(COC(=O)NC(C)C)C(c2ccccc2)N(C)C1 (centres undefined)", "readout.unit": "%", "T/C": 225}
{"compound": "CC(C)NC(=O)OCC1=C(COC(=O)NC(C)C)C(C)(C)[N+](C)([O-])C1c1ccccc1 (centres undefined)", "readout.unit": "%", "T/C": 107}

Switching to the query record.
T/C for CNC(=O)OCC1=CC[N+](C)([O-])C1COC(=O)NC (centres undefined) ?
159

###

Assign T/C to each entry below.
# Test system: P388
# assay.protocol: In vivo antileukemic activity against P388 lymphocytic leukemia at a dose of 25 mg/kg administered intraperitoneally expressed as ratio of survival of treated compared to untreated control animals
# Type: functional, Mus musculus
# condition.summary: route intraperitoneal
One number for each entry, in %.

{"molecule": "CC(C)NC(=O)OCC1=C(COC(=O)NC(C)C)C(C)(C)[N+](C)([O-])C1c1ccccc1 (centres undefined)", "test.target": "P388", "T/C, %": 100}
{"molecule": "CNC(=O)OCC1=CC[N+](C)([O-])C1COC(=O)NC (centres undefined)", "test.target": "P388", "T/C, %": 122}
{"molecule": "CC(C)NC(=O)OCC1=C(COC(=O)NC(C)C)C(c2ccccc2)[N+](C)([O-])C1 (centres undefined)", "test.target": "P388", "T/C, %": 109}

Moving on to another molecule below.
Quick one: T/C for CC(C)NC(=O)OCC1=C(COC(=O)NC(C)C)C(c2ccccc2)N(C)C1 (centres undefined) ?
136

###

# Test system: P388
# assay.protocol: In vivo antileukemic activity against P388 lymphocytic leukemia at a dose of 12.5 mg/kg administered intraperitoneally expressed as ratio of survival of treated compared to untreated control animals
# Type: functional, Mus musculus
# condition.summary: route intraperitoneal
reported.property: T/C (%)
One number for each entry, in %.

Examples from the recorded data:
{"molecule": "CC(C)NC(=O)OCC1=C(COC(=O)NC(C)C)C(c2ccccc2)[N+](C)([O-])C1 (centres undefined)", "readout.unit": "%", "T/C": 115}
{"molecule": "CNC(=O)OCC1=CC[N+](C)([O-])C1COC(=O)NC (centres undefined)", "readout.unit": "%", "T/C": 142}
{"molecule": "CC(C)NC(=O)OCC1=C(COC(=O)NC(C)C)C(c2ccccc2)N(C)C1 (centres undefined)", "readout.unit": "%", "T/C": 121}

# lookup: T/C of CC(C)NC(=O)OCC1=C(COC(=O)NC(C)C)C(C)(C)[N+](C)([O-])C1c1ccccc1 (centres undefined)
108
